Where do these numbers come from? They come from patent US11420944B2.

target: human Cav3.2 channels (Homo sapiens, UniProt O95180); construct: expressed in transfected cells; host or cells: HEK293 cells (ATCC No. CRL-1573), plasmid pcDNA3.1(+); assay: Intracellular calcium concentration measurement (Fluo-4 AM) in stable cells expressing human Cav3.2 channels, buffer A / buffer B; format: cell-based; settings: Tables 2 to 6; buffer A, equilibrium potential of potassium −92 mV; read-out: Inhibitory action of buffer A (inactivated state)
Sequence (O95180 whole entry): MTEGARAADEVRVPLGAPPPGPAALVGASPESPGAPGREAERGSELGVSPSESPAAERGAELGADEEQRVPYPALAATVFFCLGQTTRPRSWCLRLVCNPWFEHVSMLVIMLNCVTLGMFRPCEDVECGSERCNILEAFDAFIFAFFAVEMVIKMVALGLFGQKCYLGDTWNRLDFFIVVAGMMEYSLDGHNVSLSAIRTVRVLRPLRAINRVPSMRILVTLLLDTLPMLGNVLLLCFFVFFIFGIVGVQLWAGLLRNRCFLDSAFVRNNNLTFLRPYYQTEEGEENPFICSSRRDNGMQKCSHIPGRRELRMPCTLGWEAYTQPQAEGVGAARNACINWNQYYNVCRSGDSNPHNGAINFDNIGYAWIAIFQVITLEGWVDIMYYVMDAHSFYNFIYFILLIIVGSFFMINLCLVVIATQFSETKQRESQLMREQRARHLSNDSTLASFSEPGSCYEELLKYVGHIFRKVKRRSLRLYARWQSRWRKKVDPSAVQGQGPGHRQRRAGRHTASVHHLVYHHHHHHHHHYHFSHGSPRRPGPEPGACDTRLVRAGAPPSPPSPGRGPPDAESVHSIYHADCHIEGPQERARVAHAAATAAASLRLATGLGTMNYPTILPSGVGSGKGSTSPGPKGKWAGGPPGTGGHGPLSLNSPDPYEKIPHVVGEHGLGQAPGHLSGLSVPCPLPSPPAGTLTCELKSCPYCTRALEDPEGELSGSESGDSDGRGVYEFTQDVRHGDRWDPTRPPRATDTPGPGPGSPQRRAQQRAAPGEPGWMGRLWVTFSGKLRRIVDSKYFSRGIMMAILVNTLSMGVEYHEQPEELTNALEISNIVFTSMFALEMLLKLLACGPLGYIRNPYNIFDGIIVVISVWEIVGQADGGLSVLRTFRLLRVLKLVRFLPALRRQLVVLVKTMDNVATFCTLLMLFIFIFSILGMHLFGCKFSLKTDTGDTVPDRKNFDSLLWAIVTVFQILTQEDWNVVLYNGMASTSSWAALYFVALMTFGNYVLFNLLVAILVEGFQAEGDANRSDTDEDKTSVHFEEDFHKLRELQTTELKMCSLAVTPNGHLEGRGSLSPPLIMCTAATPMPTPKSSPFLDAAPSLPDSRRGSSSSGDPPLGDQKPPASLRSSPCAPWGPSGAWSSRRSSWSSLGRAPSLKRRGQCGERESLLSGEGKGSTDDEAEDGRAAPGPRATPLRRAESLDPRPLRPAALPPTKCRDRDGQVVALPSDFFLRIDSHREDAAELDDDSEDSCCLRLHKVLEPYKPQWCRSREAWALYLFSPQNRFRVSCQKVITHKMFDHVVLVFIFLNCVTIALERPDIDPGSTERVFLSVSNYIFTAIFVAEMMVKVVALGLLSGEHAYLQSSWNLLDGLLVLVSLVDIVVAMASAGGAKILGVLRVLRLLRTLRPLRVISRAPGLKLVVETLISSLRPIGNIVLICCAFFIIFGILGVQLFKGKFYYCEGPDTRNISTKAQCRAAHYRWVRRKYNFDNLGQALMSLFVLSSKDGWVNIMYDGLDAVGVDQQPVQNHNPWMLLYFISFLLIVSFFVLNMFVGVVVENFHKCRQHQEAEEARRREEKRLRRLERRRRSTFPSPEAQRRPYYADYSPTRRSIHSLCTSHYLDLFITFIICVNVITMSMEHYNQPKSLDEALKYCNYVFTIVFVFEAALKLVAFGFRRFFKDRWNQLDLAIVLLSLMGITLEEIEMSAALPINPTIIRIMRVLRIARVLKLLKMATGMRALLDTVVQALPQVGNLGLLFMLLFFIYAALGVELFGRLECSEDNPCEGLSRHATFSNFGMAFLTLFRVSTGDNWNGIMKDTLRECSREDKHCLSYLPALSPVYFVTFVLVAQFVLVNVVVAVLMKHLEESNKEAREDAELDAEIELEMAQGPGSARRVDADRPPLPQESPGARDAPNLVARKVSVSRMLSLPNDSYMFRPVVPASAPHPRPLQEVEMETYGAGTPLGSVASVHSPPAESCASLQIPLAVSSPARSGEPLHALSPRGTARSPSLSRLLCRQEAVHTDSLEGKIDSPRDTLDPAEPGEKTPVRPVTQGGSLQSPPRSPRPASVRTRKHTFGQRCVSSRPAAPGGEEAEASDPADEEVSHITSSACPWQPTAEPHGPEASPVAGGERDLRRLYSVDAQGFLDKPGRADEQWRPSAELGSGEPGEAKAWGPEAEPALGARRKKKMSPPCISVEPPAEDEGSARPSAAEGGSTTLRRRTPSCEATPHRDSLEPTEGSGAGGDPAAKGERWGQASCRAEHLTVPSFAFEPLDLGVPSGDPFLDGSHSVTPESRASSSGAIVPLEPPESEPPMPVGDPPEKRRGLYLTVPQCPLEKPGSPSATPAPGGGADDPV
Please provide measured IC50 for the entries that follow.

Quick check: IC50 of C[C@@H](NC(=O)C1CC1c1nc(-c2ccccc2)c[nH]1)c1ccc(OCC(F)(F)F)s1 (single isomer, unassigned) [Example 31A] ?
0.1 to 1 µM

Quick check: IC50 of COc1ccc2[nH]c(C3CC3C(=O)N[C@H](C)c3ccc(OCC(F)(F)F)s3)nc2c1 (single isomer, unassigned) [Example 71A] ?
0.1 to 1 µM

Quick check: IC50 of CC(C)[C@@H](NC(=O)C1CC1c1nc2ccccc2[nH]1)c1ccc(OCC(F)(F)F)s1 (single isomer, unassigned) ?
≤ 0.1 µM

Quick check: IC50 of C[C@@H](NC(=O)C1CC1c1nc2cnccc2[nH]1)c1ccc(OCC(F)(F)F)s1 (mixture of isomers) ?
> 10 µM

Quick check: IC50 of C[C@@H](NC(=O)C1CC1c1cn(C)c2ccccc12)c1ccc(OCC(F)(F)F)s1 (single isomer, unassigned) [Example 29B] ?
> 10 µM

Quick check: IC50 of `C[C@@H](NC(=O)[C@H]1C[C@@H]1c1nc2ccccc2[nH]1)c1ccc(C(=O)N2CCCCCC2)s1` ?
1 to 10 µM

Quick check: IC50 of CC(NC(=O)[C@H]1C[C@@H]1c1nc2ccccc2[nH]1)c1cc2ncccc2o1 (stereo partly drawn) ?
1 to 10 µM

Quick check: IC50 of C[C@@H](NC(=O)C1CC1c1c[nH]c2ccccc12)c1cc2cc(F)ccc2o1 (single isomer, unassigned) [Example 98A] ?
0.1 to 1 µM

Quick check: IC50 of `CC(C)[C@@H](NC(=O)[C@H]1C[C@@H]1c1nc2ccccc2[nH]1)c1ccc(C(F)(F)F)s1` ?
0.1 to 1 µM

Quick check: IC50 of C[C@@H](NC(=O)C1CC1c1nc2ccccc2o1)c1ccc(OCC(F)(F)F)s1 (single isomer, unassigned) [Example 40A] ?
> 10 µM

Quick check: IC50 of `C[C@@H](NC(=O)[C@H]1C[C@@H]1c1nc2ccccc2[nH]1)c1cc2ccc(F)cc2s1` ?
≤ 0.1 µM

Quick check: IC50 of C[C@@H](NC(=O)[C@@H]1C[C@H]1c1nc2ccccc2[nH]1)c1ccc(C(=O)OC(C)(C)C)s1 [Example 25B] ?
1 to 10 µM

Quick check: IC50 of C[C@@H](NC(=O)C1CC1c1c[nH]c2ccccc12)c1ccc(OCC(F)(F)F)s1 (single isomer, unassigned) [Example 21A] ?
0.1 to 1 µM

Quick check: IC50 of `C[C@@H](NC(=O)[C@H]1C[C@@H]1c1nc2ccccc2[nH]1)c1cc2cccc(F)c2o1` ?
0.1 to 1 µM

Quick check: IC50 of C[C@@H](NC(=O)C1CC1c1nc2cc(Cl)ccc2[nH]1)c1cnc(OCC(F)(F)F)s1 (single isomer, unassigned) [Example 64A] ?
≤ 0.1 µM

Quick check: IC50 of CC(NC(=O)[C@H]1C[C@@H]1c1nc2ccccc2[nH]1)c1nc2ccc(F)cc2[nH]1 (single isomer, unassigned) [Example 127B] ?
1 to 10 µM

Quick check: IC50 of Cc1ccc2nc(C3CC3C(=O)N[C@H](C)c3ccc(OCC(F)(F)F)s3)[nH]c2n1 (single isomer, unassigned) [Example 106A] ?
1 to 10 µM

Quick check: IC50 of C[C@@H](NC(=O)C1CC1c1nc2cc(Cl)cnc2[nH]1)c1ccc(OCC(F)(F)F)s1 (single isomer, unassigned) [Example 85B] ?
> 10 µM

Quick check: IC50 of C[C@@H](NC(=O)C1CC1c1nc2cc(Cl)ccc2[nH]1)c1ccc(OCC(F)(F)F)s1 (single isomer, unassigned) [Example 53B] ?
0.1 to 1 µM

Quick check: IC50 of C[C@@H](NC(=O)C1CC1c1ccc2ccccc2n1)c1ccc(OCC(F)(F)F)s1 (single isomer, unassigned) [Example 34A] ?
0.1 to 1 µM

Quick check: IC50 of C[C@@H](NC(=O)C1CC1c1nc2cc(Cl)ccc2[nH]1)c1nc(C2CC2)no1 (single isomer, unassigned) [Example 77A] ?
0.1 to 1 µM

Quick check: IC50 of C[C@@H](NC(=O)C1CC1c1nc2cc(Cl)ccc2o1)c1cc2cc(F)ccc2o1 (single isomer, unassigned) [Example 108B] ?
0.1 to 1 µM

Quick check: IC50 of C[C@@H](NC(=O)C1CC1c1nc2ccccc2[nH]1)c1ccc(C(=O)O)s1 (single isomer, unassigned) [Example 27] ?
> 10 µM

Quick check: IC50 of `C[C@@H](NC(=O)[C@H]1C[C@@H]1c1nc2cc(F)ccc2[nH]1)c1ccc(OCC(F)(F)F)s1` ?
≤ 0.1 µM

Quick check: IC50 of `C[C@@H](NC(=O)[C@@H]1CCN(CC(=O)Nc2cnccn2)C1)c1ccc(OCC(F)(F)F)s1` ?
1 to 10 µM

Quick check: IC50 of CC(NC(=O)[C@H]1C[C@@H]1c1nc2ccccc2[nH]1)c1cc2cnccc2o1 (stereo partly drawn) ?
1 to 10 µM

Quick check: IC50 of `O=C(N[C@@H](c1ccc(C(F)(F)F)s1)C1CC1)[C@H]1C[C@@H]1c1nc2ccccc2[nH]1` ?
0.1 to 1 µM

====

target: human Cav3.2 channels (Homo sapiens, UniProt O95180); construct: expressed in transfected cells; host or cells: HEK293 cells (ATCC No. CRL-1573), plasmid pcDNA3.1(+); assay: Intracellular calcium concentration measurement (Fluo-4 AM) in stable cells expressing human Cav3.2 channels, buffer A / buffer B; assay type: cell-based; details: Tables 2 to 6; buffer A, equilibrium potential of potassium −92 mV; read-out: Inhibitory action of buffer A (inactivated state)
Please provide measured IC50 for the entries that follow.

Quick check: IC50 of CCn1c(C2CC2C(=O)N[C@H](C)c2cnc(OCC(F)(F)F)s2)nc2ccccc21 (single isomer, unassigned) [Example 57B] ?
1 to 10 µM

Quick check: IC50 of `CCn1c([C@H]2C[C@@H]2C(=O)N[C@H](C)c2cc3cc(F)ccc3o2)nc2ccccc21` ?
≤ 0.1 µM

Quick check: IC50 of `Cc1nc(OCC(F)(F)F)sc1[C@@H](C)NC(=O)[C@H]1C[C@@H]1c1nc2ccccc2[nH]1` ?
0.1 to 1 µM

Quick check: IC50 of `C[C@@H](NC(=O)[C@@H]1CCN(c2ccc(C(F)(F)F)cn2)C1)c1cc2cc(F)ccc2o1` ?
> 10 µM

Quick check: IC50 of `C[C@@H](NC(=O)[C@H]1C[C@@H]1c1nc2ccccc2[nH]1)c1ccc2ccn(C)c2c1` ?
1 to 10 µM

Quick check: IC50 of C[C@@H](NC(=O)C1CC1c1nc2cc(Cl)ccc2[nH]1)c1ccc(OCC(F)(F)F)s1 (single isomer, unassigned) [Example 53A] ?
≤ 0.1 µM

Quick check: IC50 of CC(NC(=O)[C@H]1C[C@@H]1c1nc2ccccc2[nH]1)c1nc2cc(F)ccc2s1 (stereo partly shown) ?
≤ 0.1 µM

Quick check: IC50 of CC(C(=O)NC12CC3CC(CC(C3)C1)C2)N1CC[C@@H](C(=O)N[C@H](C)c2cnc(OCC(F)(F)F)s2)C1 (stereo partly shown) ?
≤ 0.1 µM

Quick check: IC50 of C[C@@H](NC(=O)C1CC1c1ccc2cnn(C)c2c1)c1ccc(OCC(F)(F)F)s1 (single isomer, unassigned) [Example 22B] ?
0.1 to 1 µM

Quick check: IC50 of C[C@@H](NC(=O)C1CC1c1nc(-c2ccccc2)c[nH]1)c1ccc(OCC(F)(F)F)s1 (single isomer, unassigned) [Example 31B] ?
0.1 to 1 µM

Quick check: IC50 of `CCn1c([C@H]2C[C@@H]2C(=O)N[C@H](C)c2cc3ccc(F)cc3o2)nc2ccccc21` ?
≤ 0.1 µM

Quick check: IC50 of C[C@@H](NC(=O)C1CC1c1nc2ccccc2o1)c1ccc(OCC(F)(F)F)s1 (single isomer, unassigned) [Example 40B] ?
> 10 µM

Quick check: IC50 of C[C@@H](NC(=O)C1CC1c1nc2cccnc2[nH]1)c1ccc(OCC(F)(F)F)s1 (single isomer, unassigned) ?
1 to 10 µM

Quick check: IC50 of C[C@@H](NC(=O)C1CC1c1nc2ccccc2[nH]1)c1ccc(C(=O)N2CCCC2(C)C)s1 (stereo in doubt) ?
1 to 10 µM

Quick check: IC50 of `C[C@@H](NC(=O)[C@H]1C[C@@H]1c1nc2ccccc2[nH]1)c1cnc(-c2ccccc2)s1` ?
0.1 to 1 µM

Quick check: IC50 of `C[C@@H](NC(=O)[C@H]1C[C@@H]1c1nc2ccccc2[nH]1)c1ccc(C(=O)N2CCC(F)(F)CC2)s1` ?
0.1 to 1 µM

Quick check: IC50 of `C[C@@H](NC(=O)[C@H]1C[C@@H]1c1nc2ccccc2[nH]1)c1ccc2c(c1)OCCO2` ?
1 to 10 µM

Quick check: IC50 of `C[C@@H](NC(=O)[C@@H]1CCN(CC(=O)C(C)(C)C)C1)c1ccc(OCC(F)(F)F)s1` ?
0.1 to 1 µM

Quick check: IC50 of `C[C@@H](NC(=O)[C@@H]1CCN(CC(=O)NC23CC4CC(CC(C4)C2)C3)C1)c1ccc(OCC(F)(F)F)s1` ?
≤ 0.1 µM

Quick check: IC50 of `C[C@@H](NC(=O)[C@@H]1CCN(c2ccc(C(F)(F)F)cn2)C1)c1ccc(OCC(F)(F)F)s1` ?
1 to 10 µM

Quick check: IC50 of `C[C@@H](NC(=O)[C@H]1C[C@@H]1c1nc2ccccc2[nH]1)c1ccc(C2CC2)o1` ?
0.1 to 1 µM

Quick check: IC50 of `O=C(N[C@@H](c1ccc(C(F)(F)F)s1)C1CCCCC1)[C@H]1C[C@@H]1c1nc2ccccc2[nH]1` ?
0.1 to 1 µM
